Biological target: Peroxisome proliferator-activated receptor gamma (Homo sapiens)
Assay: OT_PPARg_PPARgSRC1_1440: Odyssey Thera (OT) 24-hour Protein-Complementation Assay for Peroxisome Proliferator-activated Receptor Gamma/ SRC-1 Co-activator (AID 2283388);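 note: nuclear to cytoplasmic ratio of reconstituted Venus YFP fluorescence in fixed imaged cells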
Calls of active or inactive are those of the source. Rule for the calls: active = hit-call score of the fitted dose curve at least 0.9, where 1 is the maximum; inconclusive = response in the unintended direction; inactive = score below 0.9.
Give one outcome, nothing more. List: TRUE (active), FALSE (inactive)

Worked examples follow.
compound	assay-target	assigned-category
CN(C)N=O	Peroxisome proliferator-activated receptor gamma (Homo sapiens)	FALSE
CCCCOCCOC(C)=O	Peroxisome proliferator-activated receptor gamma (Homo sapiens)	FALSE
CCN1CCC2(CC1)COc1cc3c(cc12)N(C(=O)c1ccc(-c2ccc(-c4nnc(C)o4)cc2C)cc1)CC3	Peroxisome proliferator-activated receptor gamma (Homo sapiens)	FALSE
CC(C)(OO)c1ccccc1	Peroxisome proliferator-activated receptor gamma (Homo sapiens)	FALSE

I'd appreciate the recorded outcome for CC(C#N)CCC#N (stereo not drawn) from this test.
FALSE

I'd appreciate the recorded outcome for Cn1sc(Cl)cc1=O from this test.
FALSE

I'd appreciate the recorded outcome for Oc1ccc(-c2ccccc2)cc1 from this test.
FALSE

I'd appreciate the recorded outcome for c1cc[c]([Hg][c]2ccccc2)cc1 from this test.
TRUE

###

Read-out: Phosphatase and tensin (PTEN), PTEN (gene 5728)
Assay: LTEA_HepaRG_PTEN: Life Technologies and Expression Analysis (LTEA) Assay for Phosphatase and tensin (PTEN) using HepaRG (AID 2283523)
Settings: mRNA level, 48 h; actives raise or lower the signal
The source made the active and inactive calls. The calls were made as follows: active = hit-call score of the fitted dose curve at least 0.9, where 1 is the maximum; inactive = score below 0.9.
Give one outcome, nothing more. List: active, inactive

Worked examples follow.
compound	assigned-category
C[C@]12CCC(=O)C[C@@H]1CC[C@@H]1[C@@H]2CC[C@]2(C)[C@@H](O)CC[C@@H]12	inactive
Oc1cccc2cccnc12	inactive
CCC(C)(C)c1ccc(O)c(C(C)(C)CC)c1	inactive

I'd appreciate the recorded outcome for CCOP(=S)(OCC)SCSP(=S)(OCC)OCC from this test.
inactive

I'd appreciate the recorded outcome for CN(C)N=O from this test.
inactive

I'd appreciate the recorded outcome for CC(=O)[O][Hg][c]1ccccc1 from this test.
active

I'd appreciate the recorded outcome for C=CC(=O)OCCCCCC(C)C from this test.
inactive

I'd appreciate the recorded outcome for ClC1(Cl)C2(Cl)C3(Cl)C4(Cl)C(Cl)(Cl)C5(Cl)C3(Cl)C1(Cl)C5(Cl)C24Cl (stereo not given) from this test.
inactive

I'd appreciate the recorded outcome for CC(C)(C)c1cc(O)ccc1O from this test.
inactive

###

Target: Estrogen receptor (Homo sapiens) (UniProt P03372)
Sequence (P03372 whole entry, looked up): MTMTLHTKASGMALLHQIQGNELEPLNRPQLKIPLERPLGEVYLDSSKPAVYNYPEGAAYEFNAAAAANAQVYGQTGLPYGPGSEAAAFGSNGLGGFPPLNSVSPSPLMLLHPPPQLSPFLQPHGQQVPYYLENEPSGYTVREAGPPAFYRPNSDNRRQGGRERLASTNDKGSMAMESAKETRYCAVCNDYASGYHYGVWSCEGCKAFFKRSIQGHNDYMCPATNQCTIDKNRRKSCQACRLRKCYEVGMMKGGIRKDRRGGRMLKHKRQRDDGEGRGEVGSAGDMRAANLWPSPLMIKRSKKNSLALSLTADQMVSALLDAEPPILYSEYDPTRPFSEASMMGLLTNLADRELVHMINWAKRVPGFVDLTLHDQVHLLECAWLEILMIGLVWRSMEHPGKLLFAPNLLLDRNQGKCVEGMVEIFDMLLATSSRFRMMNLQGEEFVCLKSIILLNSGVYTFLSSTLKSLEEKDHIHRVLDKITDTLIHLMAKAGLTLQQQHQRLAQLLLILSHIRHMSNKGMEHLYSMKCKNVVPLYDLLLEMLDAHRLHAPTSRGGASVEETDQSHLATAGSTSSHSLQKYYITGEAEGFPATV
Assay: CCTE_Deisenroth_AIME_384WELL_LUC_Active: CCTE's 384-well Estrogen Receptor Transactivation Assay with AIME metabolic competence (ERTA luciferase; metabolism positive), Deisenroth Lab (AID 2284030)
Inconclusive results are not listed. The source made the active and inactive calls. The calls were made as follows: active = hit-call score of the fitted dose curve at least 0.9, where 1 is the maximum; inconclusive = response in the unintended direction; inactive = score below 0.9.
endpoint-name: AC50

Here is how some compounds turned out for AC50.
compound	AC50
CCOC(=O)Nc1cccc(OC(=O)Nc2ccccc2)c1	inactive
O=C(Cc1ccccc1)c1ccccc1	112 µM (active)
[O-][Cl+2]([O-])O	inactive
COP(=O)(OC)OC	inactive
Cc1ccc(N)cc1Cl	inactive

Batch request: AC50 for each of the following compounds.
1. NC(=O)O
2. OCC(O)CCl (configuration not stated)
3. C=C(C)C#N
4. CNC
5. CCCCCCCCSC(=O)Oc1cc(Cl)nnc1-c1ccccc1

["inactive", "0.555 µM (active)", "inactive", "inactive", "inactive"]

Batch request: AC50 for each of the following compounds.
1. CCOP(=S)(OCC)SCSP(=S)(OCC)OCC
2. CC(=O)C=C(C)C

["13.4 µM (active)", "inactive"]

meta.source: PubChem BioAssay (EPA / NIEHS)
